# assayed-system: SARS-CoV-2 RBD (residues Arg319–Phe541) (SARS-CoV-2, UniProt P0DTC2)
# experiment: SPR
# test-conditions: both partners purified
Recorded pKd by entry
Keep in mind that pKd stands for -log10 of concentration in molar terms.

>>> assay_value("P5A-2G9 (full-length IgG) (antibody, V domains shown) VH: QVQLVESGGGVVQPGRSLRLSCAASGFTFSSYGMHWVRQAPGKGLEWVAVIWYDGSNKYYADSVKGRFTISRDNSKNTLYLQMNSLRAEDTAVYYCARWFHTGGYFDYWGQGTLVTVSS VL: QPVLTQPPSSSASPGESARLTCTLPSDINVSSYNIYWYQQKPGSPPRYLLYYYSDSDKGQGSGVPSRFSGSKDASANTGILLISGLQSEDEADYYCMIWPSNALYVFGTGTKVTVL")
8.16

QUERY: Read the entry P2B-1A1 (full-length IgG) (antibody, V domains shown) VH: QVQLQESGPGLVKPSETLSLTCTVSGGSISSYYWSWIRQPPGKGLEWIGYIYYSGSTNYNPSLKSRVTISVDTSKKQFSLKLSSVTAADTAVYYCARLERDWPLDAFDIWGQGTMVTVSS VL: QSALTQPASVSGSPGQSITISCTGTSSDVGGYNYVSWYQQHPGKAPKFMIYDVSKRPSGVSNRFSGSKSGNTASLTISGLQAEDEADYYCSSYTSNNTFAFGGGTKLTVL and write its reported pKd.
RESULT: 7.57
